# Test system: MDA-MB-468
# experiment: normalised response (% of control), CellTiter-Glo; higher = more viable cells (100 = DMSO, 0 = benzethonium chloride kill control)
# condition.set: incubation time: 72 h
Quick list: normalised response per entry.
State the answer as a number, implicitly in %.

CCS(=O)(=O)c1cccc(-c2cc(C(=O)NC3CCN(C)CC3)c(C)c3[nH]c4ncc(C)cc4c23)c1 [TAK-901] (1 nM) | 110
O=C(c1ccc(OCCN2CCCCC2)cc1)c1c(-c2ccc(O)cc2)sc2cc(O)ccc12 [Raloxifene] (1000 nM) | 92.6
CCCC(CCC)C(=O)O [Valproic acid] (100000 nM) | 97.8

From here, focus on the item given below.
Inquiry: Field request: normalised response | item: Cn1cnc2c(F)c(Nc3ccc(Br)cc3F)c(C(=O)NOCCO)cc21 [MEK-162] (0.1 nM)
Reply text: 108

###

Measured normalised viability accompanies every entry in the list below.
# Test system: CAL-148
# experiment: normalised viability (% of control), CellTiter-Blue; higher = more viable cells (about 100 = DMSO control)
# condition.set: 10 nM; incubation time: 72 h
Kindly answer with a numeric value in %, unit omitted.

Answered examples (4):
CCS(=O)(=O)c1cccc(-c2cc(C(=O)NC3CCN(C)CC3)c(C)c3[nH]c4ncc(C)cc4c23)c1 [TAK-901] | 101
CC(C)(C)c1cc(NC(=O)Nc2ccc(-c3cn4c(n3)sc3cc(OCCN5CCOCC5)ccc34)cc2)no1 [Quizartinib] | 96.2
CC(=O)O[C@H]1C(=O)[C@@]2(C)[C@H]([C@H](OC(=O)c3ccccc3)[C@]3(O)C[C@H](OC(=O)[C@H](O)[C@@H](NC(=O)c4ccccc4)c4ccccc4)C(C)=C1C3(C)C)[C@]1(OC(C)=O)CO[C@@H]1C[C@@H]2O [Paclitaxel] | 51.2
CCOc1cc2ncc(C#N)c(Nc3ccc(OCc4ccccn4)c(Cl)c3)c2cc1NC(=O)/C=C/CN(C)C [Neratinib] | 93.9

Inquiry: Requested field: normalised viability. Item: CC(C)C[C@H](NC(=O)[C@H](Cc1ccccc1)NC(=O)c1cnccn1)B(O)O [Bortezomib]
Reply text: 94.4

###

# System: MDA-MB-436
# experiment: drug sensitivity score (DSS), CellTiter-Glo (DSS (AUC-based score)); higher = stronger drug effect (viability inhibition or cytotoxicity); extreme values may be limits of the assay
# condition.set: incubation time: 72 h
measure: drug sensitivity score

Cc1cc(C(C)Nc2ccccc2)c2nc(N3CCOCC3)cc(=O)n2c1 (configuration not stated) | 0
CS(=O)(=O)CCNCc1ccc(-c2ccc3ncnc(Nc4ccc(OCc5cccc(F)c5)c(Cl)c4)c3c2)o1 | 0
FC(F)c1nc2ccccc2n1-c1nc(N2CCOCC2)nc(N2CCOCC2)n1 | 9.24
COC1=C2C[C@@H](C)C[C@H](OC)[C@H](O)[C@@H](C)/C=C(\C)[C@H](OC(N)=O)[C@@H](OC)/C=C\C=C(/C)C(=O)NC(=CC1=O)C2=O | 8.77

Inquiry: Fill blank: measured drug sensitivity score of the compound "CCCC(CCC)C(=O)O" is ____.
Reply text: 0

Inquiry: # repeat for "CCOc1cc2ncc(C#N)c(Nc3ccc(OCc4ccccn4)c(Cl)c3)c2cc1NC(=O)/C=C/CN(C)C"
Reply text: 0

Inquiry: Note, next up: "CC(C)(C)c1cc(NC(=O)Nc2ccc(-c3cn4c(n3)sc3cc(OCCN5CCOCC5)ccc34)cc2)no1"
Reply text: 0

###

# Tested on: MFM-223
# experiment: normalised response (% of control), CellTox Green; higher = less cell death (100 = DMSO, 0 = benzethonium chloride kill control)
# condition.set: incubation time: 72 h
measure: normalised response
Remember to quote the unit after the number.

Inquiry: Find the measured normalised response: item CC(C)(C)c1cc(NC(=O)Nc2ccc(-c3cn4c(n3)sc3cc(OCCN5CCOCC5)ccc34)cc2)no1 [Quizartinib] (10 nM) , target or system MFM-223.
Reply text: 102%

Inquiry: Now give it for C[C@@H]1CCN(C(=O)CC#N)C[C@@H]1N(C)c1ncnc2[nH]ccc12 [Tofacitinib] (500 nM) too.
Reply text: 103%

Inquiry: Now consider Cc1cc(C(C)Nc2ccccc2)c2nc(N3CCOCC3)cc(=O)n2c1 (centres undefined) [TGX-221] (10000 nM) .
Reply text: 94.5%

Inquiry: Can you handle Cn1c(=O)c(F)c(Nc2ccc(I)cc2F)c2c(=O)n(C[C@@H](O)CO)cnc21 [TAK-733] (10 nM) next?
Reply text: 104%

###

# System: CAL-148
# experiment: normalised response (% of control), CellTox Green; higher = less cell death (100 = DMSO, 0 = benzethonium chloride kill control)
# condition.set: incubation time: 72 h
measure: normalised response (%)
Give the quantity in %, number only.

Cc1cc(C(C)Nc2ccccc2)c2nc(N3CCOCC3)cc(=O)n2c1 (centres undefined) [TGX-221] (1000 nM) | 90.8
Cc1cc(C(C)Nc2ccccc2)c2nc(N3CCOCC3)cc(=O)n2c1 (centres undefined) [TGX-221] (10000 nM) | 97.4
COC1=C2C[C@@H](C)C[C@H](OC)[C@H](O)[C@@H](C)/C=C(\C)[C@H](OC(N)=O)[C@@H](OC)/C=C\C=C(/C)C(=O)NC(=CC1=O)C2=O [Geldanamycin] (100 nM) | 106

Please look at the following compound next.
Inquiry: What value of normalised response has been recorded for this entry: CCS(=O)(=O)c1cccc(-c2cc(C(=O)NC3CCN(C)CC3)c(C)c3[nH]c4ncc(C)cc4c23)c1 [TAK-901] (1000 nM)
Reply text: 84.6

###

# System: HCC1599
# experiment: normalised response (% of control), CellTiter-Glo; higher = more viable cells (100 = DMSO, 0 = benzethonium chloride kill control)
# condition.set: incubation time: 72 h
measure: normalised response (%)
State the answer as a number, implicitly in %.

CC(C)(C)c1cc(NC(=O)Nc2ccc(-c3cn4c(n3)sc3cc(OCCN5CCOCC5)ccc34)cc2)no1 [Quizartinib] (100 nM) | 111

Inquiry: What does the data say about its normalised response? Entry: C[C@@H]1CCN(C(=O)CC#N)C[C@@H]1N(C)c1ncnc2[nH]ccc12 [Tofacitinib] (0.5 nM)
Reply text: 102

###

# System: CAL-85-1
# experiment: drug sensitivity score (DSS), CellTiter-Glo (DSS (AUC-based score)); higher = stronger drug effect (viability inhibition or cytotoxicity); extreme values may be limits of the assay
# condition.set: incubation time: 72 h
measure: drug sensitivity score
Lab note: jot down the number only; don't add units.

These recorded examples may help you get a feel for the data.
CS(=O)(=O)CCNCc1ccc(-c2ccc3ncnc(Nc4ccc(OCc5cccc(F)c5)c(Cl)c4)c3c2)o1 | 1.7
COc1ncc(-c2ccc3nccc(-c4ccnnc4)c3c2)cc1NS(=O)(=O)c1ccc(F)cc1F | 16.4

Inquiry: Can you share its drug sensitivity score? I mean this molecule: "CN1CCN(c2ccc3nc(-c4c(N)c5c(F)cccc5[nH]c4=O)[nH]c3c2)CC1"
Reply text: 0

Inquiry: Param item: "Cn1c(=O)c(F)c(Nc2ccc(I)cc2F)c2c(=O)n(C[C@@H](O)CO)cnc21"
Reply text: 6.4

Inquiry: Another: "COC1=CC(c2cc3ccccc3[nH]2)=N/C1=C\c1[nH]c(C)cc1C"
Reply text: 4.01

Inquiry: Request: "CCS(=O)(=O)c1cccc(-c2cc(C(=O)NC3CCN(C)CC3)c(C)c3[nH]c4ncc(C)cc4c23)c1"
Reply text: 0

###

# Test system: MDA-MB-468
# experiment: normalised response (% of control), CellTiter-Glo; higher = more viable cells (100 = DMSO, 0 = benzethonium chloride kill control)
# condition.set: incubation time: 72 h
measure: normalised response (%)
State the answer as a number, implicitly in %.

COc1ncc(-c2ccc3nccc(-c4ccnnc4)c3c2)cc1NS(=O)(=O)c1ccc(F)cc1F (10 nM) | 80.2

Inquiry: Field request: normalised response | item: C[C@@H]1C=C2C(=O)O[C@@H]3CC[C@H](C1)[C@]23O [Galiellalactone] (500 nM)
Reply text: 101

Inquiry: Also CS(=O)(=O)OCCCCOS(C)(=O)=O [Busulfan] (1000 nM) ?
Reply text: 97.2

Inquiry: Next molecule: CS(=O)(=O)CCNCc1ccc(-c2ccc3ncnc(Nc4ccc(OCc5cccc(F)c5)c(Cl)c4)c3c2)o1 [Lapatinib] (10 nM)
Reply text: 99.1

Inquiry: Again, but for Cc1cc(C(C)Nc2ccccc2)c2nc(N3CCOCC3)cc(=O)n2c1 (stereo unspecified) [TGX-221] (100 nM)
Reply text: 86.4

Inquiry: Next: O=C(c1ccc(OCCN2CCCCC2)cc1)c1c(-c2ccc(O)cc2)sc2cc(O)ccc12 [Raloxifene] (100 nM)
Reply text: 98.7

###

# Tested on: MDA-MB-468
# condition.set: 72 h
Flag rule - EC50, CellTiter-Glo less than 200 nM flags True; the remaining entries get False.

Check out these entries, answers already filled in.
O=C(c1ccc(OCCN2CCCCC2)cc1)c1c(-c2ccc(O)cc2)sc2cc(O)ccc12 [Raloxifene] | False
Cc1cc(C(C)Nc2ccccc2)c2nc(N3CCOCC3)cc(=O)n2c1 (configuration not stated) [TGX-221] | False
COC1=CC(c2cc3ccccc3[nH]2)=N/C1=C\c1[nH]c(C)cc1C [Obatoclax] | False
O=c1[nH]c(=O)n([C@H]2C[C@H](O)[C@@H](CO)O2)cc1F [Floxuridine] | False
CC(C)C[C@H](NC(=O)[C@H](Cc1ccccc1)NC(=O)c1cnccn1)B(O)O [Bortezomib] | True

Next, consider the following molecule.
Inquiry: Lab note: EC50, CellTiter-Glo threshold 200 nM. Does this molecule come in strictly under it? COc1cccc2c1C(=O)c1c(O)c3c(c(O)c1C2=O)C[C@@](O)(C(C)=O)C[C@@H]3O[C@H]1C[C@H](N)[C@H](O)[C@H](C)O1 [Daunorubicin]
Reply text: True
